- EXPERIMENTAL PARAMETERS: 303.15 K; 4000 kPa; Liquid; Vibrating tube method
METRIC NAME: mass density (kg/m3)
Express your answer in kg/m3, writing the number without its unit.

Before answering, review these 4 worked examples.
COMPOUND: CCCC[N+]1(C)CCCC1.O=S(=O)([N-]S(=O)(=O)C(F)(F)F)C(F)(F)F
MEASURED: 1402.2
//
COMPOUND: CCC[n+]1cccc(C)c1.O=S(=O)([N-]S(=O)(=O)C(F)(F)F)C(F)(F)F
MEASURED: 1447.6
//
COMPOUND: CCC[N+]1(C)CCCC1.O=S(=O)([N-]S(=O)(=O)C(F)(F)F)C(F)(F)F
MEASURED: 1431.6
//
COMPOUND: CCn1cc[n+](C)c1.O=S(=O)([O-])C(F)(F)F [1-ethyl-3-methylimidazolium trifluoromethanesulfonate]
MEASURED: 1372.7

Now look at this entry.
Task item: Item under review: "CCC[N+]1(C)CCCCC1.O=S(=O)([N-]S(=O)(=O)C(F)(F)F)C(F)(F)F" . Reported mass density?
Reply: 1410
